Exercise: state measured 8OG:A repair function score for each of the variants provided.
B1: library; numbered along this chain (parent)
chain: MRKPRAAVGSGHRKQAASQEGRQKHAKNNSQAKPSACDGLARQPEEVVLQASVSSYHLFRDVAEVTAFRGSLLSWYDQEKRDLPWRRRAEDEMDLDRRAYAVWVSEVMLQQTQVATVINYYTGWMQKWPTLQDLASASLEEVNQLWAGLGYYSRGRRLQEGARKVVEELGGHMPRTAETLQQLLPGVGRYTAGAIASIAFGQATGVVDGNVARVLCRVRAIGADPSSTLVSQQLWGLAQQLVDPARPGDFNQAAMELGATVCTPQRPLCSQCPVESLCRARQRVEQEQLLASGSLSGSPDVEECAPNTGQCHLCLPPSEPWDQTLGVVNFPRKASRKPPREESSATCVLEQPGALGAQILLVQRPNSGLLAGLWEFPSVTWEPSEQLQRKALLQELQRWAGPLPATHLRHLGEVVHTFSHIKLTYQVYGLALEGQTPVTTVPPGARWLTQEEFHTAAVSTAMKKVFRVYQGQQPGTCMGSKRSQVSSPCSRKKPRMGQQVLDNFFRSHISTDAHSLNSAAQ

Variants of: B1
Test: 8OG:A repair function score (normalized; synonymous = 0, nonsense = -1) (normalized log-likelihood score); higher = more repair activity (WT-like);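 note: cells sorted at 72 h after reporter transfection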
Conditions: with 8OG:A DNA repair reporter (GFP) in HEK-293 MUTYH KO cells
Reply with just the number.

Qu. Entry under review: "G356L" . Reported 8OG:A repair function score?
Ans. -0.2

Qu. Entry under review: "V230M" . Reported 8OG:A repair function score?
Ans. -0.387

Qu. Entry under review: "S276F" . Reported 8OG:A repair function score?
Ans. -0.0215

Qu. Entry under review: "T122K" . Reported 8OG:A repair function score?
Ans. -0.158

Qu. Entry under review: "Q144S" . Reported 8OG:A repair function score?
Ans. 0.0476

Qu. Entry under review: "L73K" . Reported 8OG:A repair function score?
Ans. -0.453

Qu. Entry under review: "P402K" . Reported 8OG:A repair function score?
Ans. -0.00401

Qu. Entry under review: "N329S" . Reported 8OG:A repair function score?
Ans. -0.235

Qu. Entry under review: "D94R" . Reported 8OG:A repair function score?
Ans. -0.182

Qu. Entry under review: "P383N" . Reported 8OG:A repair function score?
Ans. -0.294

Qu. Entry under review: "R189G" . Reported 8OG:A repair function score?
Ans. -0.299

Qu. Entry under review: "L257C" . Reported 8OG:A repair function score?
Ans. -0.298

Qu. Entry under review: "V47E" . Reported 8OG:A repair function score?
Ans. -0.116

Qu. Entry under review: "A162T" . Reported 8OG:A repair function score?
Ans. -0.155

Qu. Entry under review: "S343P" . Reported 8OG:A repair function score?
Ans. -0.144

Qu. Entry under review: "P352Y" . Reported 8OG:A repair function score?
Ans. -0.175

Qu. Entry under review: "V379T" . Reported 8OG:A repair function score?
Ans. -0.0632

Qu. Entry under review: "P264E" . Reported 8OG:A repair function score?
Ans. -0.25

Qu. Entry under review: "V284S" . Reported 8OG:A repair function score?
Ans. -0.0426

Qu. Entry under review: "R495Y" . Reported 8OG:A repair function score?
Ans. -0.0924

Qu. Entry under review: "F453G" . Reported 8OG:A repair function score?
Ans. -0.893

Qu. Entry under review: "V47L" . Reported 8OG:A repair function score?
Ans. -0.135

Qu. Entry under review: "T308A" . Reported 8OG:A repair function score?
Ans. 0.0246

Qu. Entry under review: "V465R" . Reported 8OG:A repair function score?
Ans. -1.13

Qu. Entry under review: "S227Q" . Reported 8OG:A repair function score?
Ans. -0.0353

Qu. Entry under review: "L184E" . Reported 8OG:A repair function score?
Ans. -1.09

Qu. Entry under review: "L73N" . Reported 8OG:A repair function score?
Ans. -0.718

Qu. Entry under review: "E90K" . Reported 8OG:A repair function score?
Ans. 0.00313

These entries and their values trace back to the supplement of paper PMC11908140.
